# credit: patent US11998609B2

experiment: In vivo pharmacokinetics and biodistribution; conditions: male, Balb/cJ, mouse, in vivo, sc, 75 mg/kg
measured-attribute: MRT (h)
Give bare numbers, in h.

*Q* What does the data say about its MRT? Entry: `Nc1ccn([C@@H]2CS[C@H](CO)O2)c(=O)n1`
*A* 50.4

* * *

Please respond with reported IC50 for every item in the list.
tested on: HBV; assay type: cell-based, hepatitis B virus; conditions: HepAD38 cells, qPCR of cellular supernatant; FIG. 5 legend; read-out: IC50, reduction of HBV production
Residues, ends and D or L forms follow the SMILES beside them. *: point of attachment. X1 = C[C@H](Cn1cnc2c(N)ncnc21)OCP(=O)(O)OCCS*; Palmitoyl = CCCCCCCCCCCCCCCC(=O)*
Answers are plain numbers, in µM.

Batch lookup, IC50 per entry.
1. CCCCCCCCCCCCCCCC(=O)N[C@H](C(=O)N[C@H](C(=O)N[C@@H](CSSCCOP(=O)(O)CO[C@H](C)Cn1cnc2c(N)ncnc21)C(=O)N[C@@H](CCC(=O)O)C(=O)O)C(C)C)C(C)C [TFV-PA2] (Palmitoyl-VVC(X1)E-OH)
2. CCCCCCCCCCCCCCCC(=O)N[C@H](C(=O)N[C@H](C(=O)N[C@H](C(=O)N[C@@H](CSSCCOP(=O)(O)CO[C@H](C)Cn1cnc2c(N)ncnc21)C(=O)N[C@@H](CCC(=O)O)C(=O)O)C(C)C)C(C)C)C(C)C [TFV-PA3] (Palmitoyl-VVVC(X1)E-OH)

*A*
[1.5, 0.25]

*Q* What does the data say about its IC50? Entry: C[C@H](Cn1cnc2c(N)ncnc21)OCP(=O)(O)O [TFV, tenofovir, reference compound]
*A* 1.1
